From: patent US20240270821A1

Kindly supply the reported Relative cAMP EC50 values for the records listed here.
molecular target: hGLP-1R (Homo sapiens, UniProt P43220); assay: cell-based or functional assay
Sequence (P43220 24-463): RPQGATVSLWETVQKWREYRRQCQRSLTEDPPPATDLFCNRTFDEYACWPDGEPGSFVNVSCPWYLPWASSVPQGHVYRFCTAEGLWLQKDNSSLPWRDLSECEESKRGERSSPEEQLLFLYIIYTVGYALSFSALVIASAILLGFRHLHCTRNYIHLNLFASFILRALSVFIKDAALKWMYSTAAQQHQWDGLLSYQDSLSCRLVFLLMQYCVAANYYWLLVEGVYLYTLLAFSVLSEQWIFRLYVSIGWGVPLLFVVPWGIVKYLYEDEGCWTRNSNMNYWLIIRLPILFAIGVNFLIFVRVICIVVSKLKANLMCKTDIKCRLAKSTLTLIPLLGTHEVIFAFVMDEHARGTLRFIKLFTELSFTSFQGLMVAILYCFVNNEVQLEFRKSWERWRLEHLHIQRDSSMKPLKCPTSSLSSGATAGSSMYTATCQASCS
Non-standard residues stand in square brackets, D forms with d. No end group written: not given here. Phe(4-CN) = N#Cc1ccc(C[C@H](N)C(=O)O)cc1; αMePhe(2-F) = C[C@](N)(Cc1ccccc1F)C(=O)O; Aib = CC(C)(N)C(=O)O
Give bare numbers, in nM.

In the examples that follow, each entry is paired with its recorded Relative cAMP EC50.
Binder	Relative cAMP EC50, nM
YXQGTXTSDYSILLDKKAQXAFIEYLEEGGPSSGAPPPE (synthetic construct; SITE 2: note = 2-Aminoisobutyric Acid; SITE 6: note = alpha-methyl-2-fluoro-L-phenylalanine; SITE 17: note = Lysine is chemically modified through conjugation of the epsilon-amino group of the Lysine side chain with (2-[2-(2-Amino-ethoxy)-ethoxy]-acetyl)-(gamma-Glu)-CO-(CH2) 16-) [Example 408]	0.253
YXQGTXTSDYSILLDKKAQXAFIEYLEEGGPSSGAPPPEEG (synthetic construct; SITE 2: note = 2-Aminoisobutyric Acid; SITE 6: note = alpha-methyl-2-fluoro-L-phenylalanine; SITE 17: note = Lysine is chemically modified through conjugation of the epsilon-amino group of the Lysine side chain with (2-[2-(2-Amino-ethoxy)-ethoxy]-acetyl)-(gamma-Glu)-CO-(CH2) 16-) [Example 399]	0.302
YXQGTFTSDXSKXLDKKAQXAFIEYLIEGGPSSGAPPPSGS (synthetic construct; SITE 2: note = 2-Aminoisobutyric Acid; SITE 10: note = 3-(4-Pyridyl)-L-alanine; SITE 13: note = alpha-methyl-leucine; SITE 17: note = Lysine is chemically modified through conjugation of the epsilon-amino group of the Lysine side chain with (2-[2-(2-Amino-ethoxy)-ethoxy]-acetyl)) [Example 908]	1.2

Give me Relative cAMP EC50 for each of these binders, listed below.
1. YXQGTXTSDXSIXLDKKAQXXFIEYLTEGGPSSGEPPPSGSEE (Aib, αMeF(2F), 4Pal, αMeL, Orn; γGlu2-C18 diacid Lys; amide; synthetic construct; SITE 2: note = 2-Aminoisobutyric Acid; SITE 6: note = alpha-methyl-2-fluoro-L-phenylalanine; SITE 10: note = 3-(4-Pyridyl)-L-alanine; SITE 13: note = alpha-methyl-leucine; SITE 17: note = Lysine is chemically modified through conjugation of the epsilon-amino group of the Lysine) [Example 638]
2. Y[Aib]QGT[αMePhe(2-F)]TSD[Phe(4-CN)]SILLDKQAQKAFIQYLLEGGPSSGEPPPSEG-NH2 (not fully specified (residue 20)) [Example 353]
3. YXQGTFTSDFSXXLDKKAQXAFIEWLLEGGPSSGAPPPEGX (synthetic construct; SITE 2: note = 2-Aminoisobutyric Acid; SITE 12: note = L-ornithine; SITE 13: note = alpha-methyl-leucine; SITE 17: note = Lysine is chemically modified through conjugation of the epsilon-amino group of the Lysine side chain with (2-[2-(2-Amino-ethoxy)-ethoxy]-acetyl)-(gamma-Glu)) [Example 262]
4. YXQGTXTSDXXIXLDXKAQXXFIEYLIEGGPSSGEPPPSGTGE (not fully specified; C-terminal amide; synthetic construct; SITE 2: note = 2-Aminoisobutyric Acid; SITE 6: note = alpha-methyl-2-fluoro-L-phenylalanine; SITE 10: note = 3-(4-Pyridyl)-L-alanine; SITE 11: note = alpha-methyl-L-serine; SITE 13: note = alpha-methyl-leucine; SITE 16: note = L-ornithine; SITE 17: note = Lysine is chemically mo) [Example 524]

[0.4, 0.634, 4.39, 0.487]
